- Tested on: HCT-116
- protocol.summary: Growth inhibition of human HCT116 cells after 72 hrs by alamar blue assay
- Type: functional
- condition: HCT-116, 72 h
readout: GI50 (µM)

Some solved cases for reference:
>>> print(df.to_string())
                                 cpd_smiles  subject_of_test  measured_result
0     COc1ccncc1-c1cc(NC2CC2)n2ncc(C#N)c2n1          HCT-116               16
1   COc1ccc(-c2cc(NC3CC3)n3ncc(C#N)c3n2)cc1          HCT-116               14
2  CC(=O)Nc1ccc2c(c1)c(-c1cc(NC3CC3)n3ncc(C#N)c3n1)cn2CCCO          HCT-116              2.3

[1] CC(=O)Nc1ccc2c(c1)c(-c1cc(NC3CC3)n3ncc(C#N)c3n1)cn2CCO
[2] CS(=O)(=O)Cc1ccc2ccn(-c3cc(NC4CC4)n4ncc(C#N)c4n3)c2c1
**Q:** Min GI50? 1 | 2 Respond with the label that goes with your answer.
**A:** 1
(1: 2.7 µM, 2: 16.4 µM)

====

- protocol.summary: Lipophilicity, log D of the compound
- Format: physicochemical
- condition: octanol/water
readout: logD

>>> df
                                 cpd_smiles  measured_result
0  CC(=O)Nc1ccc2ccn(-c3cc(NC4COC4)n4ncc(C#N)c4n3)c2c1              2.2
1  N#Cc1cnn2c(NC3CC3)cc(-n3ccc4ccc(CO)cc43)nc12              3.1
2  CC(=O)Nc1ccc2ccn(-c3cc(NCCCCO)n4ncc(C#N)c4n3)c2c1              2.6
3  CC(=O)Nc1ccc2ccn(-c3cc(NC4CC4)n4ncc(C#N)c4n3)c2c1              3.3
4  CS(=O)(=O)Cc1ccc2ccn(-c3cc(NC4CC4)n4ncc(C#N)c4n3)c2c1              2.5

[P] CC(=O)Nc1ccc2ccn(-c3cc(NCCCN4CCCC4)n4ncc(C#N)c4n3)c2c1
[Q] CC(=O)N(C)c1ccc2ccn(-c3cc(NC4CC4)n4ncc(C#N)c4n3)c2c1
**Q:** From the items above, decide which of P and Q has the lower logD reading. Answer = label.
**A:** P
(P: 1.8, Q: 2.9)

====

Reported Papp A→B values for the following compounds.
- Tested on: MDR1
- protocol.summary: Apparent permeability from apical to basolateral side in pig LLC-PK1 cells expressing MDR1
- Format: ADME, cell-based, Sus scrofa

// sample `CC(=O)Nc1ccc2ccn(-c3cc(NCCCN4CCCC4)n4ncc(C#N)c4n3)c2c1` , its Papp A→B was ≤ 5 ×10⁻⁶ cm/s

Kindly note the recorded Papp A→B for `CC(=O)Nc1ccc2ccn(-c3cc(NCCN4CCOCC4)n4ncc(C#N)c4n3)c2c1` , which is ≤ 5 ×10⁻⁶ cm/s

====

- protocol.summary: Clearance in rat at 10 mg/kg, po
- Format: ADME, organism-based
- Parameters: dose 10 mg/kg, route oral
- condition: in vivo
readout: CL/F (mL/min/kg)
Numbers only; they are read as mL/min/kg.

So for `CC(=O)Nc1ccc2ccn(-c3cc(NC4CC4)n4ncc(C#N)c4n3)c2c1` , the logged CL/F turned out to be 10
